System: 931267-113-T-J1-PDC KRAS spheroid with HUVEC/MSC, viability
Assay: Anticancer human tumor 931267-113-T-J1-PDC patient-derived colon adenocarcinoma cell line growth inhibition [KRAS2]
Conditions: second compound 1 µM; first compound 0.1 µM; active compounds read low
measured metric: viability, T/C (%)
One number for each entry, in %.

Known results for molecules:
// returns reported viability, T/C for input CN(C)C/C=C/C(=O)Nc1cc2c(Nc3ccc(F)c(Cl)c3)ncnc2cc1O[C@H]1CCOC1 + CC1OCC2(CCN(c3cnc(Sc4ccnc(N)c4Cl)c(N)n3)CC2)C1N
90.8

Let us now turn to CC(C)NCC(C(=O)N1CCN(c2ncnc3c2C(C)CC3O)CC1)c1ccc(Cl)cc1 (stereo not given) + CNCc1ccccc1-c1csc(C(C)Nc2nc(C)nc3cc(OC)c(OC)cc23)c1
47.9

Let us now turn to COC(=O)c1ccc2c(C(=Nc3ccc(N(C)C(=O)CN4CCN(C)CC4)cc3)c3ccccc3)c(O)[nH]c2c1 + CNCc1ccccc1-c1csc(C(C)Nc2nc(C)nc3cc(OC)c(OC)cc23)c1
99.3

Give viability, T/C for each of the items listed below.
1. Cn1ncnc1[C@H]1c2n[nH]c(=O)c3cc(F)cc(c23)N[C@@H]1c1ccc(F)cc1 + CC1OCC2(CCN(c3cnc(Sc4ccnc(N)c4Cl)c(N)n3)CC2)C1N
2. CC1COCCN1c1cc(-c2ccnn2C)c2ccnc(-c3ccn[nH]3)c2n1 (stereo not given) + COc1cc2nc(C)nc(NC(C)c3cc(N)cc(C(F)(F)F)c3)c2cc1OC1CCOC1
3. COc1cc2nccc(Oc3ccc(NC(=O)C4(C(=O)Nc5ccc(F)cc5)CC4)cc3)c2cc1OC + C=CC(=O)N1CCN(c2nc(=O)n(-c3c(C)ccnc3C(C)C)c3nc(-c4c(O)cccc4F)c(F)cc23)C(C)C1
4. CC1OCC2(CCN(c3cnc(Sc4ccnc(N)c4Cl)c(N)n3)CC2)C1N (stereo not given) + COc1cc2nc(C)nc(NC(C)c3cc(N)cc(C(F)(F)F)c3)c2cc1OC1CCOC1

51.2
24.1
115
72.8

Give viability, T/C for each of the items listed below.
1. CC(C)n1nc(-c2ccc3oc(N)nc3c2)c2c(N)ncnc21 + CC1OCC2(CCN(c3cnc(Sc4ccnc(N)c4Cl)c(N)n3)CC2)C1N
2. Cn1nccc1Nc1nccc(-c2cc3c(s2)C(C)(C)N(CCN2CCOCC2)C3=O)n1 + CC1OCC2(CCN(c3cnc(Sc4ccnc(N)c4Cl)c(N)n3)CC2)C1N
3. COC(=O)c1ccc2c(C(=Nc3ccc(N(C)C(=O)CN4CCN(C)CC4)cc3)c3ccccc3)c(O)[nH]c2c1 + C=CC(=O)N1CCN(c2nc(OCC3CCCN3C)nc3c2CCN(c2cccc4cccc(C)c24)C3)CC1CC#N

1. 18.7
2. 55.5
3. 63.7

Give viability, T/C for each of the items listed below.
1. Cn1ncnc1[C@H]1c2n[nH]c(=O)c3cc(F)cc(c23)N[C@@H]1c1ccc(F)cc1 + C=CC(=O)N1CCN(c2nc(=O)n(-c3c(C)ccnc3C(C)C)c3nc(-c4c(O)cccc4F)c(F)cc23)C(C)C1
2. Cn1ncnc1[C@H]1c2n[nH]c(=O)c3cc(F)cc(c23)N[C@@H]1c1ccc(F)cc1 + CNCc1ccccc1-c1csc(C(C)Nc2nc(C)nc3cc(OC)c(OC)cc23)c1
3. COc1cc2nccc(Oc3ccc(NC(=O)C4(C(=O)Nc5ccc(F)cc5)CC4)cc3)c2cc1OC + CNCc1ccccc1-c1csc(C(C)Nc2nc(C)nc3cc(OC)c(OC)cc23)c1
4. COc1cc(Nc2ncc3c(n2)-c2ccc(Cl)cc2C(c2c(F)cccc2OC)=NC3)ccc1C(=O)O + C=CC(=O)N1CCN(c2nc(=O)n(-c3c(C)ccnc3C(C)C)c3nc(-c4c(O)cccc4F)c(F)cc23)C(C)C1
5. COC(=O)c1ccc2c(C(=Nc3ccc(N(C)C(=O)CN4CCN(C)CC4)cc3)c3ccccc3)c(O)[nH]c2c1 + CC1OCC2(CCN(c3cnc(Sc4ccnc(N)c4Cl)c(N)n3)CC2)C1N

80.8
32.3
52.9
109
43.6

###

Please respond with reported viability, T/C for every item in the list.
Test system: 931267-113-T-J1-PDC KRAS spheroid with HUVEC/MSC, viability
Assay: Anticancer human tumor 931267-113-T-J1-PDC cell line growth inhibition [KRAS2];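 further: compound exposure lasted 7 days before the readout; 100% = DMSO vehicle control viability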
Details: second compound 10 µM; first compound 10 µM; active compounds read low
Answers are plain numbers, in %.

Known results for molecules:
// returns reported viability, T/C for input COc1cc(Nc2ncc3c(n2)-c2ccc(Cl)cc2C(c2c(F)cccc2OC)=NC3)ccc1C(=O)O + COc1cc2nc(C)nc(NC(C)c3cc(N)cc(C(F)(F)F)c3)c2cc1OC1CCOC1
4.17

Let us now turn to CC1OCC2(CCN(c3cnc(Sc4ccnc(N)c4Cl)c(N)n3)CC2)C1N (centres undefined) + COc1cc2nc(C)nc(NC(C)c3cc(N)cc(C(F)(F)F)c3)c2cc1OC1CCOC1
0.42

Let us now turn to CC(C)NCC(C(=O)N1CCN(c2ncnc3c2C(C)CC3O)CC1)c1ccc(Cl)cc1 (centres undefined) + CC1OCC2(CCN(c3cnc(Sc4ccnc(N)c4Cl)c(N)n3)CC2)C1N
22.5

Further cases:
// returns reported viability, T/C for input O=C(c1cc(Cc2n[nH]c(=O)c3ccccc23)ccc1F)N1CCN(C(=O)C2CC2)CC1 + CNCc1ccccc1-c1csc(C(C)Nc2nc(C)nc3cc(OC)c(OC)cc23)c1
0.23

###

Tested on: 931267-113-T-J1-PDC KRAS spheroid with HUVEC/MSC, viability
Assay: Anticancer human tumor 931267-113-T-J1-PDC cell line growth inhibition [KRAS2];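 further: compound exposure lasted 7 days before the readout; 100% = DMSO vehicle control viability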
Conditions: second compound 3.16 µM; first compound 0.001 µM; active compounds read low
measured metric: viability, T/C (%)
Give bare numbers, in %.

// returns reported viability, T/C for input CN(C)C/C=C/C(=O)Nc1cc2c(Nc3ccc(F)c(Cl)c3)ncnc2cc1O[C@H]1CCOC1 + CC1OCC2(CCN(c3cnc(Sc4ccnc(N)c4Cl)c(N)n3)CC2)C1N
48.8

Let us now turn to CC(=O)Nc1cccc(-n2c(=O)n(C3CC3)c(=O)c3c(Nc4ccc(I)cc4F)n(C)c(=O)c(C)c32)c1 + C=CC(=O)N1CCN(c2nc(OCC3CCCN3C)nc3c2CCN(c2cccc4cccc(C)c24)C3)CC1CC#N
0.28

Let us now turn to CN(C)C/C=C/C(=O)Nc1cc2c(Nc3ccc(F)c(Cl)c3)ncnc2cc1O[C@H]1CCOC1 + COc1cc2nc(C)nc(NC(C)c3cc(N)cc(C(F)(F)F)c3)c2cc1OC1CCOC1
72.8

Let us now turn to CC(C)n1nc(-c2ccc3oc(N)nc3c2)c2c(N)ncnc21 + C=CC(=O)N1CCN(c2nc(=O)n(-c3c(C)ccnc3C(C)C)c3nc(-c4c(O)cccc4F)c(F)cc23)C(C)C1
94.4

Now consider a different compound.
// returns reported viability, T/C for input CC(=O)Nc1cccc(-n2c(=O)n(C3CC3)c(=O)c3c(Nc4ccc(I)cc4F)n(C)c(=O)c(C)c32)c1 + C=CC(=O)N1CCN(c2nc(=O)n(-c3c(C)ccnc3C(C)C)c3nc(-c4c(O)cccc4F)c(F)cc23)C(C)C1
62.8

###

Test system: 931267-113-T-J1-PDC KRAS spheroid with HUVEC/MSC, viability
Test: Anticancer human tumor 931267-113-T-J1-PDC cell line growth inhibition [KRAS2]; active means viability on the fitted dose curve at most 10% of control; inactive means the rest;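 further: compound exposure lasted 7 days before the readout; 100% = DMSO vehicle control viability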
Settings: second compound 3.16 µM; first compound 10 µM
Tick one outcome: 1.0 = active, 0.0 = inactive

Test call for this compound, please: O=C(c1cc(Cc2n[nH]c(=O)c3ccccc23)ccc1F)N1CCN(C(=O)C2CC2)CC1 + C=CC(=O)N1CCN(c2nc(OCC3CCCN3C)nc3c2CCN(c2cccc4cccc(C)c24)C3)CC1CC#N
1.0

Let us now turn to Cn1nccc1Nc1nccc(-c2cc3c(s2)C(C)(C)N(CCN2CCOCC2)C3=O)n1 + COc1cc2nc(C)nc(NC(C)c3cc(N)cc(C(F)(F)F)c3)c2cc1OC1CCOC1
1.0

Let us now turn to CC1OCC2(CCN(c3cnc(Sc4ccnc(N)c4Cl)c(N)n3)CC2)C1N (stereo not given) + C=CC(=O)N1CCN(c2nc(=O)n(-c3c(C)ccnc3C(C)C)c3nc(-c4c(O)cccc4F)c(F)cc23)C(C)C1
0.0

Further cases:
Test call for this compound, please: O=C(c1cc(Cc2n[nH]c(=O)c3ccccc23)ccc1F)N1CCN(C(=O)C2CC2)CC1 + COc1cc2nc(C)nc(NC(C)c3cc(N)cc(C(F)(F)F)c3)c2cc1OC1CCOC1
0.0

Let us now turn to CC(C)NCC(C(=O)N1CCN(c2ncnc3c2C(C)CC3O)CC1)c1ccc(Cl)cc1 (stereo not given) + CC1OCC2(CCN(c3cnc(Sc4ccnc(N)c4Cl)c(N)n3)CC2)C1N
0.0
